Here the recorded Plant response rating, Bermudagrass is given for each entry.
system: bermudagrass (Cynodon dactylon); experiment: Test B pre-/postemergence plant response; type: in vivo; conditions: Postemergence, 62 g ai/ha; scale 0 (no effect) to 100 (complete control); 13 to 15 days
Provide a numeric answer; units are not to be included.

Cc1c(Cl)cccc1-n1c(-c2ccccc2)ncc(C(=O)C2=C(O)CCCC2=O)c1=O :: 100
Cc1ccccc1-n1c(-c2ccccc2)ncc(C(=O)C2=C(O)CCCC2=O)c1=O :: 85

Report measured Plant response rating, Bermudagrass; entry is "O=C1CCCC(O)=C1C(=O)c1cnc(-c2ccccc2)n(-c2ccccc2F)c1=O" 50

Give me measured Plant response rating, Bermudagrass, please, for this molecule: "CCCCc1ncc(C(=O)C2=C(O)CCCC2=O)c(=O)n1-c1cccc(C)c1" 85

Give a short answer stating reported Plant response rating, Bermudagrass for "Cc1ccc(F)cc1-n1c(-c2ccccc2)ncc(C(=O)C2=C(O)CCCC2=O)c1=O" . 95

----------
Recorded Plant response rating, Bromegrass, Downy, one value per entry.
system: downy bromegrass (Bromus tectorum); experiment: Test B pre-/postemergence plant response; assay type: in vivo; conditions: Postemergence, 125 g ai/ha; scale 0 to 100 (0 no effect, 100 complete control)
Lab note: jot the number down without any unit.

Worked set:
O=C1CCCC(O)=C1C(=O)c1cnc(-c2ccccc2)n(C2CCCC2)c1=O :: 0
O=C(C1=C(O)C2CCC(C2)C1=O)c1cnc(-c2ccsc2)n(CC2CCCO2)c1=O (stereo not shown) :: 20
CCCn1c(-c2cccc(Cl)c2)ncc(C(=O)C2=C(O)CCCC2=O)c1=O :: 35

# context switch: different compound, same Plant response rating, Bromegrass, Downy
Using the record for "Cc1ccc(F)cc1-n1c(-c2cccc(Cl)c2)ncc(C(=O)C2=C(O)CCCC2=O)c1=O" , state its measured Plant response rating, Bromegrass, Downy. 60

----------
test system: soybean (Glycine max); test: Test B pre-/postemergence plant response; type: in vivo; conditions: Postemergence, 62 g ai/ha; scale 0 (no effect) to 100 (complete control); 13 to 15 days
Measured Plant response rating, Soybean values are reported for all entries that follow.
Response field accepts a number only; no unit should be typed.

Below, each entry is followed by its recorded Plant response rating, Soybean result.
Cn1c(-c2ccccc2)ncc(C(=O)C2=C(O)CCCC2=O)c1=O :: 60
CCCCc1ncc(C(=O)C2=C(O)CCCC2=O)c(=O)n1-c1cccc(C)c1 :: 75
Cc1cc(-n2c(-c3ccccc3)ncc(C(=O)C3=C(O)CCCC3=O)c2=O)ccc1F :: 95

Now consider a different molecule.
Look up Plant response rating, Soybean of "Cc1c(Cl)cccc1-n1c(-c2ccccc2)ncc(C(=O)C2=C(O)CCCC2=O)c1=O" and report it. 100

----------
Overview of reported Plant response rating, Wheat across a group of molecules:
tested on: wheat (Triticum aestivum); experiment: Test A pre-/postemergence plant response; type: in vivo; details: Preemergence, 500 g ai/ha; 0 to 100 scale, 0 = no effect, 100 = complete control
A bare number is all that is needed in reply.

Give the measured Plant response rating, Wheat for Cc1ccc(Cl)cc1-n1c(-c2cccc(Br)c2)ncc(C(=O)C2=C(O)CCCC2=O)c1=O [Compound 144] 0

Provide measured Plant response rating, Wheat value, entry: CCn1c(-c2cccc(C)c2)ncc(C(=O)C2=C(O)C3CCC(C3)C2=O)c1=O (centres unmarked) [Compound 231] 0

Consider the molecule CCc1ccccc1-n1c(-c2ccccc2)ncc(C(=O)C2=C(O)CCCC2=O)c1=O [Compound 255] and give its recorded Plant response rating, Wheat. 0

Output Plant response rating, Wheat of O=C(C1=C(O)C2CCC(C2)C1=O)c1cnc(-c2ccccc2)n(C2CCCCC2)c1=O (centres unmarked) [Compound 248] 20

Could you please provide reported Plant response rating, Wheat for Cc1cccc(-c2ncc(C(=O)C3=C(O)CCCC3=O)c(=O)n2-c2ccccc2C)c1 [Compound 210] ? Thanks! 0

Find the measured Plant response rating, Wheat of COCCn1c(-c2cccc(F)c2)ncc(C(=O)C2=C(O)C3CCC(C3)C2=O)c1=O (centres unmarked) [Compound 235] and report it. 40

Name the recorded Plant response rating, Wheat of the item Cc1ccc(F)cc1-n1c(-c2cccc(Cl)c2)ncc(C(=O)C2=C(O)CCCC2=O)c1=O [Compound 157] in your answer. 0

State, in one line, measured Plant response rating, Wheat of COc1ccc(-n2c(-c3ccccc3)ncc(C(=O)C3=C(O)CCCC3=O)c2=O)cc1OC [Compound 218] 0

Just for reference, patent US8952024B2 is where these values come from.
